target: PfISN1 (IMP-specific nucleotidase 1) (Plasmodium falciparum); construct: wild-type, full-length; experiment: crystal structure; enzyme activation at pH […]
Sequence (A0A144A134 whole entry): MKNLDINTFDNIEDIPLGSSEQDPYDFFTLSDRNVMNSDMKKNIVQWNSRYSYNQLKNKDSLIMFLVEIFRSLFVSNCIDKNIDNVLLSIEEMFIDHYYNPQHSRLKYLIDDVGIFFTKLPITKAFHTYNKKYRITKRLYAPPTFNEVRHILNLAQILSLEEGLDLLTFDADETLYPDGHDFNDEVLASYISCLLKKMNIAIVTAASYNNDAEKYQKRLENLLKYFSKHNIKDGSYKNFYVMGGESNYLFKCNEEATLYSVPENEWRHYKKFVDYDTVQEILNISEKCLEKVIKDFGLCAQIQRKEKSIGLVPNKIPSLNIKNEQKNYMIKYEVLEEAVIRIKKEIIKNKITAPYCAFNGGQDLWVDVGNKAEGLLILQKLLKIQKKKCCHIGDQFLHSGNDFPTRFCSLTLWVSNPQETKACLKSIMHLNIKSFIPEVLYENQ
Readout name: EC50 (mM)
Report as a plain number; the unit mM is understood.

**Query** Need EC50, item Nc1ncnc2c1ncn2[C@@H]1O[C@H](COP(=O)(O)OP(=O)(O)OP(=O)(O)O)[C@@H](O)[C@H]1O [ATP]
**Result** 3.8
